# TARGET_OF_ASSAY: Alpha-2C adrenergic receptor (Homo sapiens, UniProt P18825)
# Sequence (P18825 whole entry): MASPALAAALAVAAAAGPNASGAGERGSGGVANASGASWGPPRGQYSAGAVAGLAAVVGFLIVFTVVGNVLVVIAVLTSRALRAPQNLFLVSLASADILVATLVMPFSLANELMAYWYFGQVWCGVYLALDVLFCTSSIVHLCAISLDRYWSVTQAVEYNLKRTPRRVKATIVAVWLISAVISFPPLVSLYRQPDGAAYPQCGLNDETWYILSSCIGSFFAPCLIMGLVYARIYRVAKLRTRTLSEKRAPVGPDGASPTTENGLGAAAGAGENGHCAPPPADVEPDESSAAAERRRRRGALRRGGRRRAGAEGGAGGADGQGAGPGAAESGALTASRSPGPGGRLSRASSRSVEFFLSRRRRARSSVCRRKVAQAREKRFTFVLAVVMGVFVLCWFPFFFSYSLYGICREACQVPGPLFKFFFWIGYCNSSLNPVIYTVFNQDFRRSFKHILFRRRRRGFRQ
# PROTOCOL_DESCRIPTION: Binding affinity for alpha-2C adrenergic receptor
Binary call on Ki with cut-off 4 nM: strictly below means met, and equality or higher means not met.

                         chemical_structure    group
0  C(=C\c1ccccc1)/CN1CCN(C[C@@H]2ON=C3c4ccccc4NC[C@H]32)CC1  not met

Q) Please check: Ki for CCOCCOCCOc1ccc2c(c1)OC[C@@H]1C2=NO[C@H]1CN1CCN(C/C(C)=C/c2ccccc2)CC1 , strictly under 4 nM or not?
A) met

Q) Please check: Ki for C=CC(=O)Oc1ccc2c(c1)OC[C@@H]1C2=NO[C@H]1CN1CCN(C/C(C)=C/c2ccccc2)CC1 , strictly under 4 nM or not?
A) met

----------
# TARGET_OF_ASSAY: UniProt P31645
# Sequence (P31645 whole entry): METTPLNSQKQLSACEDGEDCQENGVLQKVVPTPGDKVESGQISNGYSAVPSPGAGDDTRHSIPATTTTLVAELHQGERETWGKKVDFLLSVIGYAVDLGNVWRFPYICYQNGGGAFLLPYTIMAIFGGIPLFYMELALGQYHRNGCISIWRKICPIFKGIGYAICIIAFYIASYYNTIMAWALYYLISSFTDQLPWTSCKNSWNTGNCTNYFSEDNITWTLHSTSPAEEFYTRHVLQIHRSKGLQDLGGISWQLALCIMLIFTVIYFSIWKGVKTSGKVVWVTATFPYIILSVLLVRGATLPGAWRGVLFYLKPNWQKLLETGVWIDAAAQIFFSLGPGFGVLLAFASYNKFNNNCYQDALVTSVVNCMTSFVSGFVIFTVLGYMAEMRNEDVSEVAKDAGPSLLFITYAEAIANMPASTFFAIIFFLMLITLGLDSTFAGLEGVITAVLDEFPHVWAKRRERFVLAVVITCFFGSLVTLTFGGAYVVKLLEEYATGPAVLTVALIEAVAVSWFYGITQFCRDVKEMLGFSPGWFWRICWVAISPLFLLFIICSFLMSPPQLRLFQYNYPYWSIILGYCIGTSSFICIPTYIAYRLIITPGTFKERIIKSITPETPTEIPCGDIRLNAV
# PROTOCOL_DESCRIPTION: Binding affinity for serotonin transporter
# Format: functional, Rattus norvegicus
Measured Ki, listed per entry.
Provide only the numeric value, understood in nM.

In [3]: df
Out[3]:
                         chemical_structure  numeric_value
0  COc1cc2c(cc1OC)C1=NO[C@@H](CN3CCN(C/C=C(\C)c4ccccc4)CC3)[C@@H]1CO2             10

Q) Given the compound COc1cc2c(cc1OC)C1=NO[C@@H](CN3CCN(Cc4ccc5ccccc5c4)CC3)[C@@H]1CO2 , what is its reported Ki?
A) 1.7

----------
Measured Ki, listed per entry.
# TARGET_OF_ASSAY: D(2) dopamine receptor (Homo sapiens)
# Sequence (P14416 whole entry): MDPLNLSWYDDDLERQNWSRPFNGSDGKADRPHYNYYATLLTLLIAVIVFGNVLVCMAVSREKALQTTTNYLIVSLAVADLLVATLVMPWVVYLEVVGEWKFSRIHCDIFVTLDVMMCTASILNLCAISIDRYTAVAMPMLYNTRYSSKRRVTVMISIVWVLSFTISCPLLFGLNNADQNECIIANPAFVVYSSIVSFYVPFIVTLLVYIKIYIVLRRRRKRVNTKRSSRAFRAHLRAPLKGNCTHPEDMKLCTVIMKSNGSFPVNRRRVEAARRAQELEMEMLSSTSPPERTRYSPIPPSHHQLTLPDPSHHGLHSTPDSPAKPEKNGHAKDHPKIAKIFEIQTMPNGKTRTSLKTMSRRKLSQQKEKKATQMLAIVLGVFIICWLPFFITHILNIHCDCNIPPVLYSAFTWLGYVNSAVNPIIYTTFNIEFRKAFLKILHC
# PROTOCOL_DESCRIPTION: Inhibition of [3H]spiperone binding to Dopamine receptor D2

In [3]: df
Out[3]:
                                   compound     result
0  COc1cc2c(cc1OC)C1=NO[C@@H](CN3CCN(C/C=C(\C)c4ccccc4)CC3)[C@@H]1CO2  > 1000 nM
1  Fc1ccc2c(c1)CC(CC1CN=CN1)C2 (stereo unspecified)  > 1000 nM
2  COc1cccc2c1CCC[C@H]2CN(C)CCc1ccc2ccoc2c1  > 1000 nM
3  COc1cc2c(cc1OC)C1=NO[C@@H](CN3CCN(C/C(C)=C/c4ccccc4)CC3)[C@@H]1CO2     230 nM

Q) Given the compound COc1cc2c(cc1OC)C1=NO[C@@H](CN3CCN(Cc4ccc5ccccc5c4)CC3)[C@@H]1CO2 , what is its reported Ki?
A) > 1000 nM

Q) Given the compound COc1cc2c(cc1OC)C1=NO[C@@H](CN3CCN(C/C=C/c4ccccc4)CC3)[C@@H]1CO2 , what is its reported Ki?
A) 959 nM
